test: inhibitors of E-selectin induction by TNFa, primary screen, imaging, HUVEC, immunofluorescence, MLSMR starter and 10KST1 sets (AID 487); conditions: HUVEC TNFalpha-induced E-selectin immunofluorescence imaging, at 2 µM; stronger effect = higher value;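 further: signal is fraction of cell area covered by stained E-selectin grains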
value-type: inhibition (%)

1. Oc1ccccc1CNn1cnnc1 | -6.7
2. O=C1CCC(=O)N1c1nc2nc(-c3ccccc3)cc(-c3ccccc3)n2n1 | -15.6
3. Cc1cc(NCC2CCCO2)n2c(nc3ccccc32)c1C#N (stereo unspecified) | -9.7
4. C#CCN(C)Cc1ccccc1 | -105
5. CCOC(=O)CSc1nc(N)c2c3c(sc2n1)CCCC3 | 5.9
6. CC1=CC=CN2CC(O)CN=C12 (stereo unspecified) | -109
7. CCOC(=O)N1CCN(/C=C(\C#N)c2nc3ccccc3s2)CC1 | -5.3
8. COC(=O)c1[nH]c2cc(OC)ccc2c1NC(=O)CCN1CCCC(C)(C)C1 | -2.2
9. N#CCSc1nc2c(cc1C#N)CCCCCC2 | 46.1
10. CCOC(=O)c1ccc(NC(=O)CCC(CC)C(=O)O)cc1 (stereo unspecified) | -228
11. COC(=O)c1ccc(=O)n(Cc2ccco2)c1 | -70.6

----------
test: inhibitors of mutant huntingtin aggregation, primary screen, imaging, exon1htt(103Q)mCFP cells, high-content imaging (AID 483); details: exon1htt(103Q)mCFP cell line, aggregate imaging, at 2 µM;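 further: compound exposure lasted 3 days before fixation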
Activity calls are given as the source filed them.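 Rule for the calls: active = visual image review flags a hit and inhibition of aggregation exceeds 20%; inconclusive = visual hit but inhibition at or below 20%; inactive = no hit on visual image review.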
Classes used: Y for active, N for inactive

1. Nc1ccc(S(=O)(=O)Nc2ncccn2)cc1 | N
2. CC(=O)OCC[N+](C)(C)C | N
3. CSc1ccc2c(c1)N(CCC1CCCCN1C)c1ccccc1S2 (centres undefined) | N
4. CCN(CC)CCN1C(=O)C(=O)/C(=C(/O)c2ccc(OC(C)C)cc2)C1c1ccncc1 (centres undefined) | N
5. C[C@@H]1C[C@H]2[C@@H]3CCC4=CC(=O)C=C[C@]4(C)[C@@]3(F)[C@@H](O)C[C@]2(C)[C@@]1(O)C(=O)COP(=O)(O)O | N
6. OC[C@H]1O[C@@H](n2cnc3c(NC4CCCC4)ncnc32)[C@H](O)[C@@H]1O | N
7. O=C1N[C@@H](Cc2cnc[nH]2)C(=O)N2CCC[C@@H]12 | N
8. Nc1nnnn1/N=C/c1ccccn1 | N
9. CCOC(=O)c1ccc(CC2S/C(=C(\C#N)C(C)=O)NC2=O)cc1 (centres undefined) | N
10. COc1ccc(CCn2c(=N)c(C(=O)NCc3ccco3)cc3c(=O)n4ccccc4nc32)cc1 | N
11. Cc1ccc2nc(C(F)(F)F)c(C#N)c(N)c2c1 | N
12. Cn1c([N+](=O)[O-])cnc1COC(N)=O | N
13. CCCCCCCC(=O)OCC(=O)[C@@]1(O)CC[C@H]2[C@@H]3CCC4=CC(=O)CC[C@]4(C)[C@H]3[C@@H](O)C[C@@]21C | N
14. CCCNC(=O)NS(=O)(=O)c1ccc(Cl)cc1 | N
15. O=C1C2CC=C(Cl)CC2C(=O)N1CNc1ccccn1 (centres undefined) | N
16. O=C(C1CCCCC1)N1CC(=O)N2CCc3ccccc3C2C1 (centres undefined) | N
17. Cc1cc(N2CCN(C3CCCC3)CC2)n2c(nc3ccccc32)c1C#N | Y
18. CCOC(=O)c1c(C)n(C)c2ccc(O)c(S(=O)(=O)c3ccccc3)c12 | N
19. Fc1ccccc1-c1nc(NCCCN2CCOCC2)c2ccccc2n1 | N
20. COc1cc(/C=C/C(=O)CC(=O)/C=C/c2ccc(O)c(OC)c2)ccc1O | N
21. COc1cccc2c1C(=O)c1c(O)c3c(c(O)c1C2=O)C[C@@](O)(C(=O)CO)C[C@@H]3O[C@H]1C[C@H](N)[C@H](O)[C@H](C)O1 | N
22. C[C@]12C[C@H](O)[C@H]3[C@@H](CCC4=CC(=O)CC[C@@]43C)[C@@H]1CC[C@@H]2C(=O)CO | N
23. CCN(CC)CCN1C(=O)C(O)=C(C(=O)c2ccco2)C1c1ccccn1 (centres undefined) | N
24. CN(C)CCOC(=O)C(c1ccccc1)C1(O)CCCC1 (centres undefined) | N
